system: Mus musculus; assay: Analgetic activity against CF-1 mouse assessed as increase in reaction time at 80 mg/kg, sc by heat stimulus induced tail flick response assay; format: functional, organism-based; parameters: dose 80 mg/kg
The source made the active and inactive calls. The rule behind the calls is not given here.
Outcomes: t = active, f = inactive

1. C/C(Cl)=C\CN1CCC2(c3ccccc3)c3cc(O)ccc3CC1C2C (stereo not given) = f
2. CCC1=C(c2ccccc2)CCN(C)C1Cc1ccc(O)cc1 (stereo not given) = t
3. Cc1ccc(S(=O)(=O)Oc2ccc3c(c2)C2(c4ccccc4)CCN(C)C(C3)C2)cc1 (racemic) = f
4. CN1CCC2(c3ccccc3)CC1Cc1ccc(O)cc12 (stereo in doubt; 42) = f
5. CC1C2Cc3ccc(O)cc3C1(c1ccccc1)CCN2CCO (stereo not given) = f

====

tested on: Mus musculus; experiment: Analgetic activity against CF-1 mouse assessed as increase in reaction time at 80 mg/kg, sc by heat stimulus induced tail flick response assay; format: functional, organism-based; parameters: dose 80 mg/kg
The source made the active and inactive calls. The calls are words filed in the database; no cut-off is given here.
Outcomes: yes (1) (active), no (0) (inactive)

1. c1ccc(C23CCNC(Cc4ccccc42)C3)cc1 (racemic) = yes (1)
2. CN1CCC2(c3ccc(Cl)cc3)CC1Cc1ccccc12 (racemic) = yes (1)
3. COc1ccc(CC2C=C(c3ccccc3)CCN2C)cc1 (configuration not stated) = yes (1)
4. Br.CN1CCC2(c3ccccc3)CC1Cc1ccc(F)cc12 (racemic) = no (0)
5. CN1CCC(c2ccccc2)=CC1Cc1ccc(F)cc1 (configuration not stated) = yes (1)
6. CC(=O)Oc1ccc2c(c1)C1(c3ccccc3)CCN(C)C(C2)C1 (racemic) = no (0)
7. COc1ccc2c(c1)C1(c3ccccc3)CCN(C)C(C2)C1C (configuration not stated) = yes (1)

Reference source for all entries: ChEMBL document CHEMBL3244027
